# TGT: T1, human IL-1α (human, UniProt P01583 113-271)
# T1 sequence (looked up): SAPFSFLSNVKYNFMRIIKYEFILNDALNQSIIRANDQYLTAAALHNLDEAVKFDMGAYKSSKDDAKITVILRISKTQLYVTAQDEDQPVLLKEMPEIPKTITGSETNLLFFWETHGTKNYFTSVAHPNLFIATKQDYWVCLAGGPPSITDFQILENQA
# TEST SUMMARY: cell-based or functional assay
EXPERIMENTAL READOUT: ND50 (nM)
Give the value in nM but do not write nM after it.

Consider the worked cases shown below.
{"BINDER": "ABT1-95-176 (other) VL: DIQMTQSPSSLSASVGDRVTITCRASRPIVRNLRWYQQKPGKAPKLLIYAVSYLEPGVPSRFSGSGSGTDFTLTISSLQPEDFATYHCRQGYRWPVTFGQGTKVEIKR", "SCALE UNIT": "nM", "ND50": 0.027}
{"BINDER": "ABT1-95-44 (other, VK dAb) VL: DIQMTQSPSSLSASVGDRVTITCRASSPIVRNLRWYQQKPGKAPKLLIYSSSYLEPGVPSRFSGSGSGTDFTLTISSLQPEDFATYHCQQGYRWPVTFGQGTKVEIKR", "SCALE UNIT": "nM", "ND50": 0.15}

QUERY: Give the reported ND50 for this binder. ABT1-141-70 (other, VK dAb) VL: DIQMTQSPSSLSASVGDRVTITCRASQWIQKQLAWYQQKPGKAPKLLIYSSSHLQSGVPSRFSGSGYGTDFTLTISSLQPEDFATYYCQQHLRVPMTFGQGTKVEIKR
RESULT: 1

QUERY: Give recorded ND50. ABT1-95-137 (other) VL: DIQMTQSPSSLSASVGDRVTITCRASQPIVRNLRWYQQKPGKAPKLLIYSSSYLEPGVPSRFSGSGSGTDFTLTISSLQPEDFATYHCQQGYLWPVTFGQGTKVEIKR
RESULT: 0.09
